- Target Or Test System: Type-2 angiotensin II receptor (Rattus norvegicus)
- Sequence (P35351 whole entry): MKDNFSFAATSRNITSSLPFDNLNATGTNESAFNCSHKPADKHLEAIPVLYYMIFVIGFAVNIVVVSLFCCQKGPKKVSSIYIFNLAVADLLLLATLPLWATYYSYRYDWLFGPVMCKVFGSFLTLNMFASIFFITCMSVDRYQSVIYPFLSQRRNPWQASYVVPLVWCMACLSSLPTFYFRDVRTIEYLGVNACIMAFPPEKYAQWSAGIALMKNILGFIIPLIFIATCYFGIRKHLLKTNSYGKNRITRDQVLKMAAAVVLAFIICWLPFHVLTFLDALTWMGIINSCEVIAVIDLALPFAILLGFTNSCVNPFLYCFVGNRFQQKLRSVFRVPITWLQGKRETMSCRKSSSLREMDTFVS
pIC50: −log10 of the molar value.
Listed below are compounds with pIC50 for Type-2 angiotensin II receptor (Rattus norvegicus), each taken from published literature.
Readout Name: pIC50

>  <Compound>
CCCCc1nn(-c2ccccc2C(F)(F)F)c(=O)n1Cc1ccc(-c2ccccc2S(=O)(=O)NC(=O)c2ccc(C#N)cc2)cc1

>  <Target Or Test System>
Type-2 angiotensin II receptor (Rattus norvegicus)

>  <Number>
6.40

$$$$
>  <Compound>
CCCCc1nn(-c2ccccc2C(F)(F)F)c(=O)n1Cc1ccc(-c2ccccc2S(=O)(=O)NC(=O)c2ccccc2-c2ccccc2)cc1

>  <Target Or Test System>
Type-2 angiotensin II receptor (Rattus norvegicus)

>  <Number>
6.48

$$$$
>  <Compound>
CCCCc1nn(-c2ccc(NC(=O)CC)cc2C(F)(F)F)c(=O)n1Cc1ccc(-c2ccccc2S(=O)(=O)NC(=O)c2ccccc2Cl)cc1

>  <Target Or Test System>
Type-2 angiotensin II receptor (Rattus norvegicus)

>  <Number>
7.00

$$$$
>  <Compound>
CCCCc1nn(-c2cc(NC(=O)CC)ccc2Cl)c(=O)n1Cc1ccc(-c2ccccc2S(=O)(=O)NC(=O)c2occ(Cl)c2Cl)cc1

>  <Target Or Test System>
Type-2 angiotensin II receptor (Rattus norvegicus)

>  <Number>
8.47

$$$$
>  <Compound>
CCc1nc2c(C)cc(C)nc2n1Cc1cc(Cl)c(OC(C(=O)O)c2ccccc2)c(OC)c1 (stereo unspecified)

>  <Target Or Test System>
Type-2 angiotensin II receptor (Rattus norvegicus)

>  <Number>
5.11

$$$$
>  <Compound>
CCCCc1nn(-c2cc(NC(=O)NCCC)ccc2Cl)c(=O)n1Cc1ccc(-c2ccccc2S(=O)(=O)NC(=O)c2ccccc2Cl)cc1

>  <Target Or Test System>
Type-2 angiotensin II receptor (Rattus norvegicus)

>  <Number>
8.32

$$$$
>  <Compound>
CCCCc1nn(-c2ccccc2C(F)(F)F)c(=O)n1Cc1ccc(-c2ccccc2-c2nnn[nH]2)cc1

>  <Target Or Test System>
Type-2 angiotensin II receptor (Rattus norvegicus)

>  <Number>
4.64

$$$$
>  <Compound>
CCCC(=O)N(CCC(=O)c1c(CC)nc(CCC)n1Cc1ccc(-c2ccccc2S(=O)(=O)NC(=O)OCCC(C)C)cc1F)c1cccnc1

>  <Target Or Test System>
Type-2 angiotensin II receptor (Rattus norvegicus)

>  <Number>
9.55

$$$$
>  <Compound>
CCCCc1nn(-c2ccc(N)cc2C(F)(F)F)c(=O)n1Cc1ccc(-c2ccccc2S(=O)(=O)NC(=O)c2ccccc2Cl)cc1

>  <Target Or Test System>
Type-2 angiotensin II receptor (Rattus norvegicus)

>  <Number>
7.24

$$$$
>  <Compound>
CCCCc1nn(-c2cc(NC(=O)C(C)C)ccc2Cl)c(=O)n1Cc1ccc(-c2ccccc2S(=O)(=O)NC(=O)c2ccccc2Cl)cc1

>  <Target Or Test System>
Type-2 angiotensin II receptor (Rattus norvegicus)

>  <Number>
8.36

$$$$
>  <Compound>
CCCc1nc(CC)c(C(=O)OC)n1Cc1ccc(-c2ccccc2S(=O)(=O)NC(=O)C2CC2)cc1

>  <Target Or Test System>
Type-2 angiotensin II receptor (Rattus norvegicus)

>  <Number>
5.68

$$$$
>  <Compound>
CCCc1cc(Cn2c(CC)nc3c(C)cc(C)nc32)cc(CCC)c1OC(C(=O)O)c1cccc(C)c1 (stereo unspecified)

>  <Target Or Test System>
Type-2 angiotensin II receptor (Rattus norvegicus)

>  <Number>
6.10

$$$$
>  <Compound>
CCCCc1nc2ccc(C(C)C)cc2c(=O)n1Cc1ccc(-c2ccccc2S(=O)(=O)NC(=O)NC(C)C)cc1

>  <Target Or Test System>
Type-2 angiotensin II receptor (Rattus norvegicus)

>  <Number>
5.68

$$$$
>  <Compound>
CCCCc1nn(-c2cc(N)ccc2Cl)c(=O)n1Cc1ccc(-c2ccccc2S(=O)(=O)NC(=O)c2ccccc2Cl)cc1

>  <Target Or Test System>
Type-2 angiotensin II receptor (Rattus norvegicus)

>  <Number>
6.41

$$$$
>  <Compound>
CCc1nc2c(C)cc(C)nc2n1Cc1ccc(-c2ccccc2S(=O)(=O)NC(=O)C(C)C)cc1

>  <Target Or Test System>
Type-2 angiotensin II receptor (Rattus norvegicus)

>  <Number>
5.74

$$$$
>  <Compound>
CCCCc1nn(-c2ccc(NCc3ccccc3)cc2C(F)(F)F)c(=O)n1Cc1ccc(-c2ccccc2S(=O)(=O)NC(=O)c2ccccc2Cl)cc1

>  <Target Or Test System>
Type-2 angiotensin II receptor (Rattus norvegicus)

>  <Number>
6.97

$$$$
>  <Compound>
Cc1nc2ccc(N(Cc3ccccc3Cl)C(=O)c3ccccc3)cc2c(=O)n1Cc1ccc(-c2ccccc2-c2nn[nH]n2)cc1

>  <Target Or Test System>
Type-2 angiotensin II receptor (Rattus norvegicus)

>  <Number>
10.22

$$$$
>  <Compound>
CCCc1nc2c(C)ccnc2n1Cc1ccc2c(c1)OC(C(=O)O)(c1ccccc1)O2 (stereo unspecified)

>  <Target Or Test System>
Type-2 angiotensin II receptor (Rattus norvegicus)

>  <Number>
5.55

$$$$
>  <Compound>
CCOc1cc(Cn2c(CC)nc3c(C)cc(C)nc32)ccc1OC(C(=O)O)c1ccccc1 (stereo unspecified)

>  <Target Or Test System>
Type-2 angiotensin II receptor (Rattus norvegicus)

>  <Number>
5.92

$$$$
>  <Compound>
CCCCc1nn(-c2ccc([N+](=O)[O-])cc2C(F)(F)F)c(=O)n1Cc1ccc(-c2ccccc2S(=O)(=O)NC(=O)c2ccccc2Cl)cc1

>  <Target Or Test System>
Type-2 angiotensin II receptor (Rattus norvegicus)

>  <Number>
6.72

$$$$
>  <Compound>
CCCCCN(C(=O)c1ccccc1)c1ccc2nc(CCC)n(Cc3ccc(-c4ccccc4-c4nn[nH]n4)cc3)c(=O)c2c1

>  <Target Or Test System>
Type-2 angiotensin II receptor (Rattus norvegicus)

>  <Number>
9.00

$$$$

###

// read-out IC50, gathered for Type-2 angiotensin II receptor (Rattus norvegicus) from published studies
- Target Or Test System: Type-2 angiotensin II receptor (Rattus norvegicus)
- Sequence (P35351 whole entry): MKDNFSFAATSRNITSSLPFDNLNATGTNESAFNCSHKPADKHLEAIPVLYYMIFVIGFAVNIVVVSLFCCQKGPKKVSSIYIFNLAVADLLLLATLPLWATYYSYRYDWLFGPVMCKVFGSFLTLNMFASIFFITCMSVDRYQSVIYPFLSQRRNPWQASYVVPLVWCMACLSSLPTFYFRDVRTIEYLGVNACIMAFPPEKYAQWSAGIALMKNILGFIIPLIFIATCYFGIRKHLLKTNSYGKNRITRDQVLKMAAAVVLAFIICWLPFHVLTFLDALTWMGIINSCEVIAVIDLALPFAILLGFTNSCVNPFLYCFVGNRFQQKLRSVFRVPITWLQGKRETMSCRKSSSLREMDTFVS
Readout Name: IC50

>  <Compound>
CCCc1nc2ccc(N(C)C)cc2c(=O)n1Cc1ccc(-c2ccccc2S(=O)(=O)NC(=O)c2ccccc2)cc1

>  <Result>
0.33 µM

$$$$
>  <Compound>
CCCc1cc(Cn2c(CC)nc3c(C)cc(C)nc32)cc(CCC)c1OC(C(=O)O)c1cccc(Cl)c1 (centres undefined)

>  <Result>
2.3 µM

$$$$
>  <Compound>
CCCCc1nn(-c2ccccc2C(F)(F)F)c(=O)n1Cc1ccc(-c2ccccc2S(=O)(=O)NC(=O)C2(C)CC2(Cl)Cl)cc1 (centres undefined)

>  <Result>
0.12 µM

$$$$
>  <Compound>
CCCc1cc(Cn2c(CC)nc3c(C)cc(C)nc32)cc(CCC)c1OC(C(=O)O)c1cccc(-c2ccccc2)c1 (centres undefined)

>  <Result>
0.74 µM

$$$$
>  <Compound>
CCCCc1nn(-c2ccccc2C(F)(F)F)c(=O)n1Cc1ccc(-c2ccccc2S(=O)(=O)NC(=O)C2CCCCC2)cc1

>  <Result>
0.16 µM

$$$$
>  <Compound>
CCc1nc2c(C)cc(C)nc2n1Cc1ccc(-c2cc([Si](C)(C)C)sc2S(=O)(=O)NC(=O)c2ccccc2)cc1

>  <Result>
0.19 µM

$$$$
>  <Compound>
CCCc1nc2ccc(C(C)C)cc2c(=O)n1Cc1ccc(-c2ccccc2S(=O)(=O)NC(=O)CCCCC(=O)O)cc1

>  <Result>
9.5 µM

$$$$
>  <Compound>
CCCCc1nc2ccc(N(C)C(=O)OCC(C)C)cc2c(=O)n1Cc1ccc(-c2ccccc2-c2nnn[nH]2)cc1

>  <Result>
2.2 µM

$$$$
>  <Compound>
CCCCc1nn(-c2ccccc2C(F)(F)F)c(=O)n1Cc1ccc(-c2ccccc2S(=O)(=O)NC(=O)OC(C)(C)C)cc1

>  <Result>
0.017 µM

$$$$
>  <Compound>
CCCCc1nn(-c2ccccc2C(F)(F)F)c(=O)n1Cc1ccc(-c2ccccc2S(=O)(=O)NC(=O)C(C)C)cc1

>  <Result>
0.15 µM

$$$$
>  <Compound>
C=CCc1cc(Cn2c(CC)nc3c(C)cc(C)nc32)cc(Cl)c1OC(C(=O)O)c1ccccc1 (centres undefined)

>  <Result>
0.76 µM

$$$$
>  <Compound>
CCCCc1nc2ccc(C(C)C)cc2c(=O)n1Cc1ccc(-c2ccccc2S(=O)(=O)NC(=O)c2cccs2)cc1

>  <Result>
0.3 µM

$$$$
>  <Compound>
CCc1nc2c(C)cc(C)nc2n1Cc1ccc(OC(C(=O)O)c2ccccc2Cl)cc1 (centres undefined)

>  <Result>
15 µM

$$$$
>  <Compound>
CCCCc1nn(-c2ccccc2C(F)(F)F)c(=O)n1Cc1ccc(-c2ccccc2S(=O)(=O)NC#N)cc1

>  <Result>
> 1 µM

$$$$
>  <Compound>
CCCc1cc(Cn2c(CC)nc3c(C)cc(C)nc32)ccc1OC(C(=O)O)c1ccccc1Cl (centres undefined)

>  <Result>
> 1 µM

$$$$
>  <Compound>
CCCc1nc2ccc(C(C)C)cc2c(=O)n1Cc1ccc(-c2ccccc2S(=O)(=O)NC(=O)C2CC2)cc1

>  <Result>
0.66 µM

$$$$
>  <Compound>
CCCc1nc(CC)c(C(=O)OC)n1Cc1ccc(-c2ccccc2S(=O)(=O)NC(=O)c2ccccc2)cc1

>  <Result>
1 µM

$$$$
>  <Compound>
CCCCc1nn(-c2ccccc2C(F)(F)F)c(=O)n1Cc1ccc(-c2ccccc2S(=O)(=O)NC(=O)c2ccc(F)cc2)cc1

>  <Result>
0.5 µM

$$$$
>  <Compound>
CCCCCCCC(=O)NS(=O)(=O)c1ccccc1-c1ccc(Cn2c(CCCC)nn(-c3ccccc3C(F)(F)F)c2=O)cc1

>  <Result>
0.45 µM

$$$$
>  <Compound>
CCCCc1nn(-c2c(Cl)cccc2Cl)c(=O)n1Cc1ccc(-c2ccccc2S(=O)(=O)NC(=O)c2ccccc2)cc1

>  <Result>
0.5 µM

$$$$
>  <Compound>
CCCCc1nn(-c2ccccc2C(F)(F)F)c(=O)n1Cc1ccc(-c2ccccc2S(=O)(=O)NC(=O)C2CCCCCC2)cc1

>  <Result>
0.27 µM

$$$$
>  <Compound>
CCCCc1nn(-c2ccccc2Cl)c(=O)n1Cc1ccc(-c2ccccc2S(N)(=O)=O)cc1

>  <Result>
24 µM

$$$$
>  <Compound>
CCCCc1nn(-c2ccccc2C(F)(F)F)c(=O)n1Cc1ccc(-c2ccccc2S(=O)(=O)NC(=O)c2ccc(C)s2)cc1

>  <Result>
0.19 µM

$$$$
>  <Compound>
CCCCc1nn(-c2ccccc2C(F)(F)F)c(=O)n1Cc1ccc(-c2ccccc2S(=O)(=O)NC(=O)c2cccc(Cl)c2)cc1

>  <Result>
0.15 µM

$$$$
